The measurements presented in this section are drawn from patent US10028992B2.

System: α7 integrin promoter
Experiment: muscle cell-based assay: α7βgal+/− myoblasts/myotubes, LacZ reporter, β-galactosidase cleavage of FDG
Set-up: species or system mouse; scale not given here
Details: Myoblasts, 10 uM
Classify as follows. Reported Results in α7+/− β-galactosidase assay greater than or equal to 0.01: true. Reported Results in α7+/− β-galactosidase assay below: false.

O=C(Nc1cc(-c2nc3ccccc3s2)ccc1Cl)c1ccc2c(c1)OCO2 [drawing 626]
true
O=C(CNC(=O)c1cccc(F)c1)N/N=C/c1cc(Br)ccc1OCc1ccccc1 [drawing 519]
true
Cc1[nH]c2ccc(F)cc2c1CCN(Cc1ccco1)/C(S)=N/C(C)(C)C [drawing 639]
false
Nc1cccc(/C=C/C(=O)O)c1 [drawing 676]
true
Cc1ccc2c(c1)/C(=C/c1ccccc1C)C(=O)N2 [drawing 558]
true

Lookup: Could you please find out whether NC(=O)COc1ccc(C(=O)/C=C2\C(=O)Nc3ccccc32)cc1 [drawing 587] has Results in α7+/− β-galactosidase assay that meets 0.01 or exceeds it?
Found: false

Lookup: Please tell me: is the compound COc1ccc2c(c1)/C(=C\c1cccc(/C=C3/C(=O)Nc4ccc(OC)cc43)n1)C(=O)N2 [drawing 651] at or over 0.01 in terms of Results in α7+/− β-galactosidase assay?
Found: false

Lookup: API: above_or_equal(metric=Results in α7+/− β-galactosidase assay, cutoff=0.01) for item CC(C(=O)Nc1ccc(C#N)cc1)N(C)CC(=O)Nc1cccc(F)c1 (centres unmarked) [drawing 630]
Found: true

Lookup: Is the recorded value of Results in α7+/− β-galactosidase assay equal to or greater than 0.01 for this compound? COc1cccc(C(=O)COc2ccc3ccc(=O)oc3c2)c1 [drawing 571]
Found: true

Lookup: In plain terms: is recorded Results in α7+/− β-galactosidase assay at least 0.01 for COc1ccc(OC)c(NC(=O)CN2CCC(NC(=O)c3ccccc3C)CC2)c1 [drawing 574] ?
Found: false

====

Tested on: α7 integrin promoter
Experiment: muscle cell-based assay: α7βgal+/− myoblasts/myotubes, LacZ reporter, β-galactosidase cleavage of FDG
Design: species or system mouse
Conditions: Myotubes; compound at 5 uM
Hi there, I'd appreciate the recorded Results in a α7+/− β-galactosidase assay, Myotubes, 5 uM for every entry that follows.
Answers are plain numbers.

Cc1cccc(NC(=O)CN(C)C(=O)c2ccc(-c3ccc(Cl)cc3)o2)c1 [drawing 435]
−0.09532
CCOC(=O)c1cc(C(=O)OCC)c(SCc2ccccc2)nc1O [drawing 416]
0.2144

# input for lookup
Lookup: State the recorded Results in a α7+/− β-galactosidase assay, Myotubes, 5 uM for this entry: CCN(CC)CCNC(=O)c1c(C)[nH]c(CC2C(=O)Nc3ccc(F)cc32)c1C (stereo not drawn) [drawing 507]
Found: −0.9266

====

Tested on: α7 integrin promoter
Experiment: muscle cell-based assay: α7βgal+/− myoblasts/myotubes, LacZ reporter, β-galactosidase cleavage of FDG
Parameters: species or system mouse
Conditions: Myotubes; compound at 1 uM
Method: An α7 integrin null mouse was produced in which exon 1 of the gene encoding the α7 integrin was replaced by the LacZ reporter. […] A primary myoblast cell line (designated α7βgal^+/−) isolated from 10 day old α7^+/− pups were analyzed for the ability of β-galactosidase to report α7 integrin expression. α7βgal^+/− myoblasts were differentiated and subjected to X-gal staining and western analysis (FIGS. 1A and 1B). […]
EXPERIMENTAL ENDPOINT: Results in a α7+/− β-galactosidase assay, Myotubes, 1 uM
One number for each entry.

Past entries and their recorded results:
CCC(C)NC(=O)CSc1nnc(COc2ccc(Br)cc2)o1 (stereo not drawn) [drawing 391]
−0.169
Cc1ccc2c(c1)/C(=C/c1ccccc1F)C(=O)N2 [drawing 459]
−0.08264
COc1ccc(C(=O)/C=C2\C(=O)Nc3ccccc32)cc1OC [drawing 420]
−0.07984
CCn1c(=O)c2cc(C(=O)N(C)c3cc(C)ccc3OC)sc2c2ccccc21 [drawing 428]
−0.01854
CC(C)CN(C(=O)c1cccc(Cl)c1)c1c(N)n(Cc2ccccc2)c(=O)[nH]c1=O [drawing 336]
0.2672
O=CN1CCN(C(=O)CC(c2ccccc2)c2cc(Br)ccc2O)CC1 (stereo not drawn) [drawing 487]
−0.1354
CC1(C)Cc2ccccc2-c2nc3n(c(=O)c21)CCS3 [drawing 380]
0.08602
CCO/C(C)=C1\C(=O)Nc2ccccc21 [drawing 497]
0.0259
c1ccc(-c2cn3c4c(sc3n2)CCCC4)cc1 [drawing 490]
0.06029
CN1C(=O)/C(=C(/C#N)c2nc3ccccc3[nH]2)c2ccccc21 [drawing 384]
−0.02413

// input: 4 molecules below; output: Results in a α7+/− β-galactosidase assay, Myotubes, 1 uM for each
1. COC(=O)c1cc(S(=O)(=O)NCC2CCN(Cc3ccc(Cl)cc3)CC2)cn1C [drawing 464]
2. N#Cc1nc(COc2ccccc2)oc1N1CCCC1 [drawing 466]
3. CSc1ccc(S(=O)(=O)NCc2ccccc2)cc1 [drawing 382]
4. CNC(=O)CSc1nnc(-c2ccc3c(c2)OCO3)n1C [drawing 328]

Found:
1: −0.05118; 2: −0.2423; 3: −0.2515; 4: −0.1177

Please go through the list and note Results in a α7+/− β-galactosidase assay, Myotubes, 1 uM for each molecule.
1. COc1ccc(CCNC(=O)Cn2nnc(C(=O)Nc3ccc(Br)cc3)c2N)cc1OC [drawing 325]
2. CC1CC(C)(C)N=C(S)N1CC(=O)N(C)Cc1ccccc1 (stereo not drawn) [drawing 385]

Found:
["−0.08157", "−0.02121"]

Report Results in a α7+/− β-galactosidase assay, Myotubes, 1 uM for every entry below.
1. CC1Cc2ccccc2N1C(=O)CSc1nnc(N)s1 (stereo not drawn) [drawing 423]
2. CCC(CC)C(=O)Nc1c(C(=O)N2CCN(c3ccccc3)CC2)oc2ccccc12 [drawing 479]
3. O=C(NCCc1ccc(Cl)cc1)C1CCCO1 (stereo not drawn) [drawing 481]

Found:
1: −0.1188; 2: −0.04983; 3: −0.0666

Okay, here is my list. What is Results in a α7+/− β-galactosidase assay, Myotubes, 1 uM for each of these?
1. COc1ccc(N2CCN(C(=O)c3cc(C)on3)CC2)cc1 [drawing 331]
2. COc1ccc(CNC(=O)C2CCCN(S(=O)(=O)c3c(C)noc3/C=C/N(C)C)C2)cc1 (stereo not drawn) [drawing 371]
3. CCc1c(C)sc(NC(=O)c2ccco2)c1C#N [drawing 319]
4. CCOC(=O)c1cc(-c2cccs2)nc2c1c(C)nn2-c1ccccn1 [drawing 462]
5. COc1c(Cl)cc(/C=C2\C(=O)Nc3ccccc32)cc1Cl [drawing 504]
6. CCOC(=O)c1nnn(-c2nonc2OC)c1-c1ccccc1 [drawing 344]
7. NC(=O)COc1ccc(C(=O)/C=C2\C(=O)Nc3ccccc32)cc1 [drawing 379]
8. O=C(O)c1csc(-c2cccs2)n1 [drawing 362]

Found:
1. 0.07329
2. 0.2675
3. −0.00083
4. −0.1286
5. −0.02066
6. 0.07612
7. 0.06227
8. 0.2837

====

Test system: α7 integrin promoter
Assay: muscle cell-based assay: α7βgal+/− myoblasts/myotubes, LacZ reporter, β-galactosidase cleavage of FDG
Design: species or system mouse
Settings: Myotubes; compound at 1 uM
Consider the following molecules; for each one, report its Results in a α7+/− β-galactosidase assay, Myotubes, 1 uM.
One number for each entry.

CC(=O)Nc1ccc(NC(=O)c2cc(=O)c3cc(C)cc(C)c3o2)cc1 [drawing 388]
−0.03106
O=C1Nc2ccccc2/C1=C/c1c[nH]c(-c2ccccc2)n1 [drawing 340]
0.1643

Consider now this further molecule.
Lookup: Look up Results in a α7+/− β-galactosidase assay, Myotubes, 1 uM: Cc1noc(C)c1COc1ccc(C(=O)NCCc2ccccn2)cc1 [drawing 386]
Found: 0.1153

====

Give Fit Curve Class for every item shown.
Tested on: α7 integrin promoter
Experiment: muscle cell-based assay: α7βgal+/− myoblasts/myotubes, LacZ reporter, β-galactosidase cleavage of FDG
Parameters: species or system mouse
Details: Table 12; key not given

Below: 3 compounds and their reported Fit Curve Class.
CS(=O)(=O)N(Cc1ccc(C(=O)NC2CCCC2)cc1)c1ccccc1
2.1
COc1ccc(Cl)cc1NC(=O)CC(=O)Nc1cc(Cl)ccc1OC
2.1
Cc1ccc(NC(=O)C2CCCCC2C(=O)O)cc1C (stereo not shown)
2.1

Count: 2. Required value per item: Fit Curve Class.
1. COc1ccc(N(CC(=O)NCCC(C)C)C(=O)c2snc(C(=O)NC3CCCCC3)c2N)c(OC)c1
2. COc1cc2c(cc1NC(=O)Cc1ccc(C)cc1)oc1ccccc12

Found:
1. 2.1
2. 1.1

Look up Fit Curve Class for the entries below, preserving their order.
1. CN(C)S(=O)(=O)c1cccc(C(=O)Nc2ccc3c(c2)CCC3)c1
2. CCc1ccc(N(C(=O)c2snc(C(N)=O)c2N)C(C(=O)NC2CCCC2)c2ccco2)cc1 (stereo not shown)
3. COc1ccc(-c2csc3ncnc(N4CCN(c5ccccc5[N+](=O)[O-])CC4)c23)cc1

Found:
1. 1.1
2. 1.1
3. 2.1

Please give Fit Curve Class for each item listed below.
1. CCOc1ccc(S(=O)(=O)NCCC(=O)NCC(c2cccs2)N2CCOCC2)cc1 (stereo not shown)
2. CCOC(=O)c1sc(=N)n(-c2ccc(OC)cc2)c1C

Found:
1.1
1.1
